- Test system: UO-31
- Experiment Notes: NCI tumour cell line growth inhibition, 48 h
Active and inactive are the calls of the source. Rule as the data show it: active = GI50 up to about 1.1 µM and inactive = higher.
The categories you may choose from are T (active), F (inactive)

As a guide, the following entries are already answered.
>>> label_class("C/C(=N\\Nc1nc2ccccc2[nH]1)c1ccc2ccccc2n1")
"T"
>>> label_class("Cc1ccc(NCC2(/N=C/c3ccccc3)OC(CO)C(O)C2O)cc1 (stereo unspecified)")
"F"
>>> label_class("N#CCC12CC=CCC1=C(O)C(=O)c1ccc(O)cc12 (stereo unspecified)")
"F"

Moving on to another compound below.
Q) Status in this test for CC1=CC(=O)C(C)(C2=NC(C)(C)CO2)c2ccccc21 (stereo unspecified) ?
A) F

Reference for the values: ChEMBL document CHEMBL1201862
